# Subject Of Test: T1, human Ror2 (human, UniProt Q01974 34-403, limits assumed)
# T1 construct: also called hROR2; receptor tyrosine kinase-like orphan receptor 2
# Assay Protocol: ELISA, human Ror2; ratio of signal at pH 6.0 to pH 7.4
ratio, pH 6.0/7.4 overview
Write the number on its own, no unit after it.

A selection of reference data follows.
Binder	ratio, pH 6.0/7.4
LC-V029E (antibody, V domains shown) VH: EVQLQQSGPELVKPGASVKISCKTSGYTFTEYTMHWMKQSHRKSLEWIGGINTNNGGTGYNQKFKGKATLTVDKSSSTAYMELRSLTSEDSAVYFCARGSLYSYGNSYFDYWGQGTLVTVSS VL: QIVLTQSPAIMSASPGEKVTITCSATSSESYMHWFQQKPGTSPKLWIYGTSNLASGVPARFSGSGSGTSYSLTISRMEAEDAATYYCQQRSSYPFTFGQGTKVEIK	3.15
LC-R090H (antibody, V domains shown) VH: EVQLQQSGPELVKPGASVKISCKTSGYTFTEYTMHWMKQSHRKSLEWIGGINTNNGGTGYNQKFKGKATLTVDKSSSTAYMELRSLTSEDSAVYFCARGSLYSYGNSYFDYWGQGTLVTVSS VL: QIVLTQSPAIMSASPGEKVTITCSATSSVSYMHWFQQKPGTSPKLWIYGTSNLASGVPARFSGSGSGTSYSLTISRMEAEDAATYYCQQHSSYPFTFGQGTKVEIK	2.19
LC-F097D (antibody, V domains shown) VH: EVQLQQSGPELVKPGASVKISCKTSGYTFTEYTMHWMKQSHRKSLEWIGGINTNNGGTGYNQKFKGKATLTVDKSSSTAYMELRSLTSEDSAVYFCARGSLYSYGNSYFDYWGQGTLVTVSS VL: QIVLTQSPAIMSASPGEKVTITCSATSSVSYMHWFQQKPGTSPKLWIYGTSNLASGVPARFSGSGSGTSYSLTISRMEAEDAATYYCQQRSSYPFTDGQGTKVEIK	1.77
LC-H033L (antibody, V domains shown) VH: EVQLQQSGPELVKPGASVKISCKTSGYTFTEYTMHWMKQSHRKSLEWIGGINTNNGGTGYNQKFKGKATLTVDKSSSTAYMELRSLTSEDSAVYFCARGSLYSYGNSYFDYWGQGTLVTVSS VL: QIVLTQSPAIMSASPGEKVTITCSATSSVSYMLWFQQKPGTSPKLWIYGTSNLASGVPARFSGSGSGTSYSLTISRMEAEDAATYYCQQRSSYPFTFGQGTKVEIK	2.08

Turning to the following binder.
Consider LC-G049C (antibody, V domains shown) VH: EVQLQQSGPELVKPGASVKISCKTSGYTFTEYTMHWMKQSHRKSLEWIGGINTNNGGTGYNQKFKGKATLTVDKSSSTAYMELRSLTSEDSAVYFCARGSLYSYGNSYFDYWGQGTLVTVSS VL: QIVLTQSPAIMSASPGEKVTITCSATSSVSYMHWFQQKPGTSPKLWIYCTSNLASGVPARFSGSGSGTSYSLTISRMEAEDAATYYCQQRSSYPFTFGQGTKVEIK . Its measured ratio, pH 6.0/7.4 is 3.52
